Source of measurements: PubChem BioAssay (NCATS)

# Tested on: P94_40
# assayComment: qHTS profiling for inhibitors of Plasmodium falciparum proliferation (AID 504749); further: nearly all actives have a fitted effect of over 60% in size
# studyConditions: P. falciparum in erythrocytes, SYBR Green DNA, 72 h; series mostly up to 28.7 µM
# Protocol: NIH National Institute of Allergy and Infectious Diseases [NIAID] NIH Chemical Genomics Center [NCGC] […] Because mature erythrocytes lack DNA, only Plasmodium-derived DNA is detected. NCGC Assay Protocol Summary: The SYBR Green viability assay was adapted from a method described previously (Plouffe et al., 2008). […] The following morning, fluorescence intensity at 485(14) nm excitation and 535(25) nm emission wavelengths was measured on an EnVision (Perkin Elmer) plate reader. […]
Inconclusive results are not listed. Activity calls are given as the source filed them. The call rests on the fitted dose curve; in most records, active means well fitted inhibition curve with a large enough effect; inconclusive means small, poorly fitted or top-dose-only effect; inactive means flat fitted curve, though single readings scatter.
Lab note: assign the record to one of active, inactive

Worked examples, 3 compounds total:
compound	groupLabel
c1ccc2nc(N3CCNCC3)ccc2c1	inactive
Cc1c(Cl)c(=O)oc2cc(OP(=O)(OCCCl)OCCCl)ccc12	active
CC(C)(C)OC(=O)c1ncn2c1[C@@H]1CCCN1C(=O)c1c(Br)cccc1-2	inactive

Enquiry: Test call for this compound, please: NC(=O)CN1CCCC1=O
Return: inactive

Enquiry: State the result this test recorded for Clc1ccc(CO/N=C(\Cn2ccnc2)c2ccc(Cl)cc2Cl)c(Cl)c1 .
Return: active

Enquiry: Tell me the assay call for CC[C@]1(O)CC[C@H]2[C@@H]3CCC4=CCCC[C@@H]4[C@H]3CC[C@@]21C please.
Return: active

Enquiry: Answer briefly: the call reported for ClC1=C(Cl)C2(Cl)C(CBr)CC1(Cl)C2(Cl)Cl (stereo not drawn) in this assay.
Return: inactive

Enquiry: Hi team, can someone confirm the assay call for C[N+]1(CCC(C(N)=O)(c2ccccc2)c2ccccc2)CCCCC1 ?
Return: inactive

Enquiry: What was the test verdict on CNC(=O)Oc1cccc2ccccc12 ?
Return: active

Enquiry: Please state the recorded outcome for this compound: O=c1n(Cl)c(=O)n(Cl)c(=O)n1Cl
Return: inactive

Enquiry: How did this test come out for CCNc1nc(Cl)nc(NCC)n1 ?
Return: inactive

Enquiry: Could you kindly confirm the outcome this assay logged for C[N+](C)(C)CCOC(=O)C(O)(c1ccccc1)c1ccccc1 ?
Return: inactive

Enquiry: Tell me the recorded outcome of this test for CC(C)C(Br)C(=O)NC(N)=O (stereo not drawn) .
Return: inactive

Enquiry: Record lookup: outcome of this test for CCS(=O)(=O)C(C)(C)S(=O)(=O)CC ?
Return: inactive

Enquiry: Field: outcome | Entry: CCCCCCCCC(=O)NCc1ccc(O)c(OC)c1
Return: inactive

Enquiry: What classification did COc1ccc(CN2CCNCC2)c(OC)c1OC end up with in this test?
Return: inactive
